Each recorded value in this set is attributed to PubChem BioAssay.

# Assay notes: liver-stage malaria parasite load reduction – cell-based, known kinase inhibitor set, luminescence, hepatoma host viability (AID 624392);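 also: infected cells incubated roughly two days before readout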
# Condition: Plasmodium liver stage in hepatoma cells, luciferase luminescence, concentration not given here; measured here: host liver cell viability
Measure name: liver cell % of control (%)
Output spec: scalar in %, unitless text.

# annotated cases, reported liver cell % of control shown
Compound	Result units	liver cell % of control
C=CC(=O)Nc1cccc(Nc2nc(NC3CCC(N(C)C)CC3)nc3c2ncn3C(C)C)c1 (centres undefined)	%	43.6
CCN1CCN(Cc2ccc(NC(=O)c3ccc(C)c(NC(=O)c4cncc(-c5cccs5)c4)c3)cc2C(F)(F)F)CC1	%	83.9
COc1cc(C(=O)NC2CCN(C)CC2)ccc1Nc1ncc2c(n1)N(C1CCCC1)CCC(=O)N2C(C)C	%	99.8

We now examine a further compound.
Inquiry: Which liver cell % of control is listed for N#Cc1c(NC(=O)c2cccc3ccccc23)sc2c1CCCC2 ?
Reply text: 69

---

# Assay notes: growth inhibition, single agent or in combination, cell-based, chromothripsis tumors, cisplatin or BGB combos (AID 1671449);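 also: cells exposed for 96 hours; 0% = vehicle DMSO and 100% = killing by high DMSO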
# Condition: LFS_MB_P medulloblastoma cells, measured here: combination with cisplatin, at 0.5 µM, stronger effect = higher value
Please use TRUE whenever inhibition is not below -20%, and FALSE whenever it is.

COc1ccc(-n2c(SCCCN3C(=O)c4cccc5cccc(c45)C3=O)nnc2-c2ccncc2)cc1 TRUE

Now consider the entry below.
Inquiry: Threshold query (inhibition >= -20%) on O=C(CCCCCCNC(=O)c1cnc(N(c2ccccc2)c2ccccc2Cl)nc1)NO
Reply text: TRUE

---

# Assay notes: viability loss in pontine glioma line – cell-based, SU-DIPG-XIII, MIPE4.0, CellTiter-Glo, qHTS, dose response (AID 1347061);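 also: cells exposed to compound for 48 hours before readout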
# Condition: CellTiter-Glo ATP luminescence
Records with an inconclusive call do not appear. Active and inactive are the calls of the source. The limit is not given here; nearly all actives have AC50 up to about 37 µM.
Measure name: AC50

Solved cases (4 shown):
Compound	AC50
CCCCN1CCC(CNC(=O)c2c3n(c4ccccc24)CCCO3)CC1	6.62 µM (active)
CC#CCn1c(N2CCC[C@@H](N)C2)nc2c1c(=O)n(Cc1nc(C)c3ccccc3n1)c(=O)n2C	inactive
CC(C(C)N1CC(=O)NC(=O)C1)N1CC(=O)NC(=O)C1 (centres undefined)	inactive
CN(C)c1nc(Cc2ccc(NC(=O)c3ccc(C(F)(F)F)cc3)cc2)nc(N(C)C)c1CC(=O)O	inactive

Inquiry: What value of AC50 has been recorded for this entry: N=C1S/C(=C\c2ccc(-c3ccc4c(c3)C(=O)NC4=O)o2)C(=O)N1c1ccc(Br)cc1
Reply text: inactive

Inquiry: What do we get for CO[C@H]1C[C@@H]2CC[C@@H](C)[C@@](O)(O2)C(=O)C(=O)N2CCCC[C@H]2C(=O)O[C@H]([C@H](C)C[C@@H]2CC[C@@H](OC(=O)C(C)(CO)CO)[C@H](OC)C2)CC(=O)[C@H](C)/C=C(\C)[C@@H](O)[C@@H](OC)C(=O)[C@H](C)C[C@H](C)/C=C/C=C/C=C/1C ?
Reply text: inactive

Inquiry: What about CCCCCCCCCC(=O)N[C@@H](Cc1c[nH]c2ccccc12)C(=O)N[C@H](CC(N)=O)C(=O)N[C@@H](CC(=O)O)C(=O)N[C@@H]1C(=O)NCC(=O)N[C@@H](CCCN)C(=O)N[C@@H](CC(=O)O)C(=O)N[C@H](C)C(=O)N[C@@H](CC(=O)O)C(=O)NCC(=O)N[C@H](CO)C(=O)N[C@@H]([C@@H](C)CC(=O)O)C(=O)N[C@@H](CC(=O)c2ccccc2N)C(=O)O[C@@H]1C ?
Reply text: inactive
